molecular target: T1, human PD-L1-Fc protein (human, UniProt Q9NZQ7 19-238); assay: ELISA, antibody titrated on coated human PD-L1-Fc, OD 450nm; upper left panel
T1 construct: coating antigen of the ELISAs; also called rhPD-L1-Fc; not shown: Fc
T1 sequence (Q9NZQ7 19-238 limits assumed): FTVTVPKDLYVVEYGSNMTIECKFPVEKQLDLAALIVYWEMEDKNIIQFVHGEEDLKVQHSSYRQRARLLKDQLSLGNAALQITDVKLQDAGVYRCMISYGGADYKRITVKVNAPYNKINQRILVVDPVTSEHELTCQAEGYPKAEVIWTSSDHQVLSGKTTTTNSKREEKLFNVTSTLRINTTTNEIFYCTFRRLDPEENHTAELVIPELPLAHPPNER
quantity kind: EC50 (ng/mL)

[
  {
    "binder": "Hu89C10H8-1 (antibody, V domains shown, humanized) VH: EVQLVESGGGLVKPGGSLRLSCAASGFTFSNYWMTWVRQAPGKGLEWVASITNTGSSTFYPDSVKGRFTISRDNAKNSLYLQMNSLRAEDTAVYYCARDTTIAPFDYWGQGTMVTVSS VL: DIQMTQSPSSLSASVGDRVTITCKASQNLNEYLNWYQQKPGKAPKRLIYKTNTLQAGVPSRFSGSGSGTDYTLTISSLQPEDFATYYCSQYNSGNTFGQGTKLEIK",
    "endpoint result": 6.22
  },
  {
    "binder": "Hu89C10H8-3 (antibody, V domains shown, humanized) VH: EVQLVESGGGLVKPGGSLRLSCAASGFTFSNYWMTWIRQAPGKGLEWVASITNTGSSTFYPDSVKGRFTISRDNAKNSLYLQMNSLRAEDTAVYYCTRDTTIAPFDYWGQGTMVTVSS VL: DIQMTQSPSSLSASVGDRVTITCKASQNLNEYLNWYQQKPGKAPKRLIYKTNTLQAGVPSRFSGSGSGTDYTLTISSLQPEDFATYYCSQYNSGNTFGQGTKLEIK",
    "endpoint result": 6.66
  },
  {
    "binder": "Hu67F3G7-3 (antibody, V domains shown, humanized) VH: EVQLVQSGAEVKKPGASVKVSCKASGYIFTDFWVSWVRQAPGQGLEWIGEIYPNSGVSRYNEKFKGRVTMTVDKSISTAYMELSRLRSDDTAVYYCTKYFGYTYWFGYWGQGTLVTVSS VL: DIQMTQSPSSLSASVGDRVTITCRASKSVSTYMHWYQQKPGKAPKLLIYSASHLESGVPSRFSGSGSGTDFTLTISSLQPEDFATYYCQQSNELPVTFGGGTKVEIK",
    "endpoint result": 23.2
  },
  {
    "binder": "Hu89C10H8-2 (antibody, V domains shown, humanized) VH: EVQLVESGGGLVKPGGSLRLSCAASGFTFSNYWMTWVRQAPGKGLEWVASITNTGSSTFYPDSVKGRFTISRDNAKNSLYLQMNSLRAEDTAVYYCTRDTTIAPFDYWGQGTMVTVSS VL: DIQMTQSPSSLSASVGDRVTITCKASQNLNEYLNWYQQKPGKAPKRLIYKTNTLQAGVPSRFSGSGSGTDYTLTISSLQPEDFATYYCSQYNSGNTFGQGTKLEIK",
    "endpoint result": 7.28
  },
  {
    "binder": "Hu47C6A3-1 (antibody, V domains shown, humanized) VH: QVQLQESGPGLVKPSETLSLTCTVSGYSITSDYAWNWIRQPPGKGLEWIGYIIYSGSTSYNPSLKSRVTISVDTSKNQFSLKLSSVTAADTAVYYCARSTMIATNWFAYWGQGTLVTVSS VL: DIQMTQSPSSLSASVGDRVTITCKASQDVSLAVAWYQQKPGKAPKLLIYWASTRHTGVPSRFSGSGSGTDFTLTISSLQPEDFATYYCQQHYITPWTFGGGTKVEIK",
    "endpoint result": 9.63
  }
]

These measurements were taken from patent US20230287125A1.
